The listing below reports pIC50 for molecules tested on Voltage-gated inwardly rectifying potassium channel KCNH2 (Homo sapiens, UniProt Q12809).
Sequence (Q12809 whole entry): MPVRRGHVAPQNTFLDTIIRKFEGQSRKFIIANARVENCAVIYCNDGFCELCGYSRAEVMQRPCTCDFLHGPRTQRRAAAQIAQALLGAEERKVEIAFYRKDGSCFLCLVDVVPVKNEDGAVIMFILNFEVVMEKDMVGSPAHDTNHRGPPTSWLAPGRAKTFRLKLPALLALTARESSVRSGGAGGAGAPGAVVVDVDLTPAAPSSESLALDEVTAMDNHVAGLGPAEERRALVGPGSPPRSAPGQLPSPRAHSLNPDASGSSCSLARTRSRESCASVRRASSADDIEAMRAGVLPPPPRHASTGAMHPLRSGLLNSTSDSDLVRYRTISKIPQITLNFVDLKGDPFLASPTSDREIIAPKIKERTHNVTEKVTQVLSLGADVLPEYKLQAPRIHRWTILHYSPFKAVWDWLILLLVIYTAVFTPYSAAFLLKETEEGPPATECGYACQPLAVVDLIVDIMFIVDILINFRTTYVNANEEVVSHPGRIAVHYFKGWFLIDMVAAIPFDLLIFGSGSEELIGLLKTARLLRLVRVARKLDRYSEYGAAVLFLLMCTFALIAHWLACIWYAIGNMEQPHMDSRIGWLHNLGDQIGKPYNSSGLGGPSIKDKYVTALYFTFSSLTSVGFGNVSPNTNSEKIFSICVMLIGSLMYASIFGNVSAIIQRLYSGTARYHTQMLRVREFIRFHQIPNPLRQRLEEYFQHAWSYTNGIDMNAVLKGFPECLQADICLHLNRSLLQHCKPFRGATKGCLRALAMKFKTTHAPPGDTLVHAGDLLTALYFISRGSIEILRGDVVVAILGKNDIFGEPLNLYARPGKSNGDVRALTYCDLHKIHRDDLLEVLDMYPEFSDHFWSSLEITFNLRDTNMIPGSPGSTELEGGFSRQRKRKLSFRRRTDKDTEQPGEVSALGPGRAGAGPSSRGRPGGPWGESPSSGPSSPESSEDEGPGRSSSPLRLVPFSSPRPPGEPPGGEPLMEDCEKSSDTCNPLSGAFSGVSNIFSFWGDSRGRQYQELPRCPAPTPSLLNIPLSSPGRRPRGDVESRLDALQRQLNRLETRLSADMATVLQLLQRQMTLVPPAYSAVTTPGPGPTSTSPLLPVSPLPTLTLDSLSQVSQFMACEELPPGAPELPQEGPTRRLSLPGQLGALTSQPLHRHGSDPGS
Answers are plain numbers, as −log10 of the molar value.

Example entries begin here.
- smiles-structure: "OC1(c2cccnc2)CCN(c2ccc3nnc(C(F)(F)F)n3n2)CC1"
  experimental-system: "Voltage-gated inwardly rectifying potassium channel KCNH2 (Homo sapiens, UniProt Q12809)"
  result: 4.02
- smiles-structure: "Fc1ccc(CN2CCN(C3=Nn4c(nnc4C(F)(F)F)CC3)CC2)cc1"
  experimental-system: "Voltage-gated inwardly rectifying potassium channel KCNH2 (Homo sapiens, UniProt Q12809)"
  result: 4.53
- smiles-structure: "CC(=O)N1CCN(CCOc2ccc(C3CCN(c4ccc5nnc(C(F)(F)F)n5n4)CC3)cc2)CC1"
  experimental-system: "Voltage-gated inwardly rectifying potassium channel KCNH2 (Homo sapiens, UniProt Q12809)"
  result: 4.95

Requested read-out: pIC50. Entry: `Cn1nccc1CCOc1ccc(C2CCN(c3ccc4nnc(C(F)(F)F)n4n3)CC2)cc1`
4.75
